Record type: IC50 measurement. Applies to: ROCK2 (Homo sapiens (Human))
MEASURED PARAMETER: IC50 (nM)

Some solved entries appear below for comparison.
O=C(N[C@H](CO)c1cccc(F)c1)c1cc(-c2ccncc2)[nH]n1
98
COc1ccc(F)c(CNC(=O)Nc2cc(-c3ccncc3)[nH]n2)c1
239
COc1cccc([C@@H](C)NC(=O)Nc2cc(-c3ccncc3)n[nH]2)c1
8.7
COc1cccc(CN(C)C(=O)Nc2cc(-c3ccncc3)[nH]n2)c1
22.9
COc1cccc(CN(CCN(C)C)C(=O)Nc2cc(-c3ccncc3)[nH]n2)c1
22.1

(a) COc1cccc(CNC(=O)Nc2cc(-c3ccncc3)[nH]n2)c1
(b) COc1cccc(CNC(=O)Nc2cnn(-c3ccncc3)c2)c1
-- ask Which gives the smaller IC50 number: a or b ? Please reply using the label of the selected record.
-- reply a
